- Test system: Metabotropic glutamate receptor 8 (Rattus norvegicus) (UniProt P70579)
- Sequence (P70579 whole entry, looked up): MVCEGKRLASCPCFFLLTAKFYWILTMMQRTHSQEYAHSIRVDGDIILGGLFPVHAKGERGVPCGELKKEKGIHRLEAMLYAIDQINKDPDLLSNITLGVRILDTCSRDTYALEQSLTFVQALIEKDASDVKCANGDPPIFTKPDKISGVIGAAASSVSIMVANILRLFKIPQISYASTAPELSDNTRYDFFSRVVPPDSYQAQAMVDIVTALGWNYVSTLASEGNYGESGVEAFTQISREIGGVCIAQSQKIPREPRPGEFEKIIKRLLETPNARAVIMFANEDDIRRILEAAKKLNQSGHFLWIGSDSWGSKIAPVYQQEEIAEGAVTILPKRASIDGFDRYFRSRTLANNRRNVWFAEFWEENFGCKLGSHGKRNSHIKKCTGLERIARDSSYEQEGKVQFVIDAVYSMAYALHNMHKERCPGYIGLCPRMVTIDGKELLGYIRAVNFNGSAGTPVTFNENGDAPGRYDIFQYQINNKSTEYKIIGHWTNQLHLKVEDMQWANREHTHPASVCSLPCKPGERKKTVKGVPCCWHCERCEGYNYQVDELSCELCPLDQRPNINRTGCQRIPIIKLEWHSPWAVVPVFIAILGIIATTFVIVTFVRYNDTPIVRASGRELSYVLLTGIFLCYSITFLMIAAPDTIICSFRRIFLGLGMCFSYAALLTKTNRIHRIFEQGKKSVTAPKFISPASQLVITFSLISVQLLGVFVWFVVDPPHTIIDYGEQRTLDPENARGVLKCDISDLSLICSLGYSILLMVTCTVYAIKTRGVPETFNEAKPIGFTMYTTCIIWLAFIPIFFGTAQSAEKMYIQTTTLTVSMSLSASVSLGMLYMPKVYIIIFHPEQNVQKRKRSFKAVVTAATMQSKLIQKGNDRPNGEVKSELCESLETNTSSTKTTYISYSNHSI
- Assay overview: mGluR8 Gi/Go-coupled signaling modulation – cell-based, rat, thallium flux, HTS, primary screen (AID 488969)
- Settings: HEK293 rat mGluR8, GIRK (G protein-gated inwardly rectifying potassium channel) thallium flux, FluoZin2; at 10 µM; stronger effect = higher value; submaximal glutamate (EC20) added with thallium
Over roughly 110,000 compounds, “z-score” has its median near -0.1; the highest 2% begin near 2. The full list was thinned out, with the highest values kept by preference.
Measure: z-score
Give bare numbers.

Solved entries:
Compound | Measure | Observed measurement
Cc1c(CCOC(=O)CC23CC4CC(CC(C4)C2)C3)sc[n+]1CC(=O)c1ccc(Br)cc1 | z-score | 0.0917
O=C(NC(=S)Nc1ccc(N2CCOCC2)cc1)c1ccco1 | z-score | 3.46

Report z-score for every entry below.
1. O=C(NC(=S)Nc1ccc(N2CCOCC2)cc1)c1ccc(Cl)cc1
2. Cc1ncsc1CCOC(=O)C1C2CC3CC(C2)CC1C3 (stereo unspecified)
3. O=C(NC(=S)Nc1ccc(N2CCCCC2)cc1)c1ccco1
4. S=C(NCc1ccco1)Nc1ccc(N2CCOCC2)cc1

Response given:
1: 0.272; 2: 0.00939; 3: -1.53; 4: -0.00184
